Quick reference: melting point of the listed items.

>  <structure.notation>
CC1(C)OC(=O)N=C1c1ccccc1

>  <observed.measurement>
106 to 108 °C

$$$$
>  <structure.notation>
Cc1nonc1-n1cc(C(=O)O)c(=O)c2c(C)c(F)c(F)cc21

>  <observed.measurement>
200 to 202 °C

$$$$
>  <structure.notation>
O=[N+]([O-])c1ccc(Oc2ccc(O)c(Cl)c2Cl)cc1

>  <observed.measurement>
147 to 150 °C

$$$$
>  <structure.notation>
CC(C)OP(=O)(CNc1cc(Oc2ccc(C(F)(F)F)cc2Cl)ccc1[N+](=O)[O-])OC(C)C

>  <observed.measurement>
93 to 94 °C

$$$$

// below: melting point requested for another compound
query: Need melting point, item NC(=O)N(O)CC=Cc1cccc(F)c1Sc1ccc(F)cc1
result: 127 to 128 °C
